- study.target: BChE (EC 3.1.1.8, equine serum) (Equus caballus, UniProt P81908)
- Sequence (P81908 whole entry): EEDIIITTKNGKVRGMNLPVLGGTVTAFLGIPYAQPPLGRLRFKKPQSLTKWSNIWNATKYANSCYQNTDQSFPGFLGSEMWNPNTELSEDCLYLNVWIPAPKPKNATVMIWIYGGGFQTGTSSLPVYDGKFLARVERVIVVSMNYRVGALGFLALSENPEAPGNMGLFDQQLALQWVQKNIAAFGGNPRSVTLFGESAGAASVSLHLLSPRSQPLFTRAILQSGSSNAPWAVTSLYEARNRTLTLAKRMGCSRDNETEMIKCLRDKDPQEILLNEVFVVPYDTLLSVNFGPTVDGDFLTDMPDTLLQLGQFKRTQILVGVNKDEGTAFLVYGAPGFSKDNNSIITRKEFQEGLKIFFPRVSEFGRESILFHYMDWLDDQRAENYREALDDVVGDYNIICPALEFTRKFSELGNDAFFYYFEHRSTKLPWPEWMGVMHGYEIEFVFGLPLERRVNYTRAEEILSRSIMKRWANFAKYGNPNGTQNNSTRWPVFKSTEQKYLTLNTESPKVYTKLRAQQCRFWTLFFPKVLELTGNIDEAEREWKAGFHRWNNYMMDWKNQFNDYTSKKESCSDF
- experiment.description: biochemical
pIC50: −log10 of the molar value.
Entries and their measured pIC50 follow.
measured.quantity: pIC50

Clc1ccc(C[n+]2nn(Cc3cccc(Cl)c3)c3c4ccsc4ccc32)cc1.[Br-] [Compound 6]	6.02
COc1ccc(Cn2n[n+](Cc3ccc(Cl)cc3)c3ccc4sccc4c32)cc1 [Compound 13]	5.39
Cc1ccc(C[n+]2nn(Cc3cccc(Cl)c3)c3c4ccsc4ccc32)cc1.[Br-] [Compound 5]	5.09
Cc1ccc(C[n+]2nn(Cc3ccc(Cl)cc3)c3c4ccsc4ccc32)cc1.[Br-] [Compound 1]	5.59
Fc1cccc(Cn2n[n+](Cc3ccccc3)c3ccc4sccc4c32)c1.[Br-] [Compound 8]	5.34
Clc1ccc(Cn2n[n+](Cc3ccc(Cl)cc3)c3ccc4sccc4c32)cc1.[Br-] [Compound 2]	5.30
